Hey, just so you know, these numbers are from the supplement of paper PMC11196671.

Experiment: MHET released, HPLC; higher = more MHET released; extreme values may be limits of the assay
Details: PET substrate: aFilm; 70 °C; pH 8.5; 24 h
quantity.measured: MHET released (mM)
Numbers only here, please. The scale is mM.

| item.sequence | quantitative.result |
| --- | --- |
| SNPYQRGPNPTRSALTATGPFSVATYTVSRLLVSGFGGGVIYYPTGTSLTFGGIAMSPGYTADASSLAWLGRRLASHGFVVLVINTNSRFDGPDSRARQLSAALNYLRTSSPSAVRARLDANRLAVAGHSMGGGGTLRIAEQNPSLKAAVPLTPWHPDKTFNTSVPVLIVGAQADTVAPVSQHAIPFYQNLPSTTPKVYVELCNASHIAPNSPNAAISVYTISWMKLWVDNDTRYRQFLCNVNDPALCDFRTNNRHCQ [LCC-ICCG I6M] | 0.164 |

Attention now turns to another entry.
# sequence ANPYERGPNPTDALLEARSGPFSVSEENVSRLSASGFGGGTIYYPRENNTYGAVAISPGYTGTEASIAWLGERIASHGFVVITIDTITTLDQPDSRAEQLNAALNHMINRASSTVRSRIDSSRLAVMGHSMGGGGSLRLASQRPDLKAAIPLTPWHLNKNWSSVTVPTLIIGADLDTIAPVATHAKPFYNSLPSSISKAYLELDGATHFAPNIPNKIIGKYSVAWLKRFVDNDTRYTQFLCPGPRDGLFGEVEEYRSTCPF [TfCut2] ; its MHET released = 0.0146

====

Assay: PET hydrolysis product formed (TPA+MHET+BHET, UV-Vis) per mg enzyme (mmol/mg enzyme); higher = more PET depolymerisation activity; extreme values may be limits of the assay
Settings: PET substrate: aFilm; 60 °C; pH 9.5; 24 h
quantity.measured: PET hydrolysis product formed
The answer should be a number; do not append a unit.

Looking up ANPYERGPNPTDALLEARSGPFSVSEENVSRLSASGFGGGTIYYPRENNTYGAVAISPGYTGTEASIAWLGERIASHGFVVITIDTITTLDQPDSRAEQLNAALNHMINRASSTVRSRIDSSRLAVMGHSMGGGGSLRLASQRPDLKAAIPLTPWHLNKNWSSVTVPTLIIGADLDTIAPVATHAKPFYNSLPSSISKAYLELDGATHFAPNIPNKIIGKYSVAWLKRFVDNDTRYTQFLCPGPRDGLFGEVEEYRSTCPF [TfCut2] , I found its PET hydrolysis product formed recorded as 0.133

====

Experiment: terephthalic acid (TPA) released, HPLC; higher = more TPA released; extreme values may be limits of the assay
Conditions: PET substrate: aFilm; 70 °C; pH 8.5; 24 h
quantity.measured: terephthalic acid

| item.sequence | quantity.measured | result |
| --- | --- | --- |
| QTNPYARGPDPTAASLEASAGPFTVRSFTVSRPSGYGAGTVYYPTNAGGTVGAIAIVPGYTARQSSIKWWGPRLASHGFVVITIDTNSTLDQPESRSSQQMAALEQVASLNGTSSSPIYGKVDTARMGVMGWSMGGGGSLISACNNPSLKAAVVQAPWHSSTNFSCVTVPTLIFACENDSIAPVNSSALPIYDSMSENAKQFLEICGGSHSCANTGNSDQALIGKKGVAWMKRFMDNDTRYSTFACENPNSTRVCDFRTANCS [Z1-PETase] | terephthalic acid | 0.00307 mM |

Consider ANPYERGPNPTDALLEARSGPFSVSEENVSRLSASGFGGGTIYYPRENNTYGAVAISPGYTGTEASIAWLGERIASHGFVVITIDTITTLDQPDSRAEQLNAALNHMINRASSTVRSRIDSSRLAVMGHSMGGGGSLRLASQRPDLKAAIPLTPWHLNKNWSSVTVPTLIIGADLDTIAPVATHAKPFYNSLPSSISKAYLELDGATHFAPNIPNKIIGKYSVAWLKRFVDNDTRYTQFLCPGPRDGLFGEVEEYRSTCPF [TfCut2] . Its measured terephthalic acid is 0.00941 mM

Data point: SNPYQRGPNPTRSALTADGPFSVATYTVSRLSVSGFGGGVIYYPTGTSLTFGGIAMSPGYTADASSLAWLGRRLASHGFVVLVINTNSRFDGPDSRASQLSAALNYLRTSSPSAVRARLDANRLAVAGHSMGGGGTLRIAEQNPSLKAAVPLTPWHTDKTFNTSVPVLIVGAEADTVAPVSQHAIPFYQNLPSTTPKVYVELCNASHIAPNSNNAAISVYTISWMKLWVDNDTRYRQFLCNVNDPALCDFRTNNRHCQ [LCC-ICCG] ; terephthalic acid = 0.287 mM

====

Experiment: PET hydrolysis product formed (TPA+MHET+BHET, UV-Vis) per mg enzyme (mmol/mg enzyme); higher = more PET depolymerisation activity; extreme values may be limits of the assay
Details: PET substrate: cryPow; 70 °C; pH 7.5; 2 h
Mark true for reported PET hydrolysis product formed of 0.04 or greater; mark false for anything smaller.

For orientation, consider the following solved cases.
| item.sequence | assigned.label |
| --- | --- |
| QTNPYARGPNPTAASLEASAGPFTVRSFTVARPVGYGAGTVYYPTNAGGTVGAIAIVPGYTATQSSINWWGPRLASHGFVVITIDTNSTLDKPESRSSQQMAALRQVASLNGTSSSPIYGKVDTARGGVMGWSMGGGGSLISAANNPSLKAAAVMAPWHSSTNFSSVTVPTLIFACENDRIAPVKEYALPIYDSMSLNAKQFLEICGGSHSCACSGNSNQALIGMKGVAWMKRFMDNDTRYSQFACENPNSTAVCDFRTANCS [HotPETase] | true |
| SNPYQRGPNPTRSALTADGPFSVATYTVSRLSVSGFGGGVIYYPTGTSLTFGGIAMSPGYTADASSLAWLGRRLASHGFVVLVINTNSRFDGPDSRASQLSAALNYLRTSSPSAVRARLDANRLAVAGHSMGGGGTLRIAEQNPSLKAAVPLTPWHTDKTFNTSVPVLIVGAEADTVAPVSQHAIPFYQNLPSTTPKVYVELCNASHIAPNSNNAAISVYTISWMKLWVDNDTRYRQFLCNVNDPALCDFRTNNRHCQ [LCC-ICCG] | true |
| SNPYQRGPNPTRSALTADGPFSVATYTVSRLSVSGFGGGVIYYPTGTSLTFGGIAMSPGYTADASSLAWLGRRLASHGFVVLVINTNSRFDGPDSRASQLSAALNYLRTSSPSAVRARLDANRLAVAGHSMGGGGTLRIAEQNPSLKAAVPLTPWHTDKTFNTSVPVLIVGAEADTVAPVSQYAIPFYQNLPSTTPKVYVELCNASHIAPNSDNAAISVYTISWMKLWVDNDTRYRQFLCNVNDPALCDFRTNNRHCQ [LCC-A2] | true |

**Q:** Textbook exercise: given the entry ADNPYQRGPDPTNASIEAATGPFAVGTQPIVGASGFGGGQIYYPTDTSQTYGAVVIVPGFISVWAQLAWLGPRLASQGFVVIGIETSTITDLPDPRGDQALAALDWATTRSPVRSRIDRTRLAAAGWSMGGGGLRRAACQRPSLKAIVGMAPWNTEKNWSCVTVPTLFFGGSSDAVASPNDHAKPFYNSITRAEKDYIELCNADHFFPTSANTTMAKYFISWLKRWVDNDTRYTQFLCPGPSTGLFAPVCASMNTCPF [CaPETaseM9] , state whether its PET hydrolysis product formed is greater than or equal to 0.04.
**A:** false

**Q:** Could you please find out whether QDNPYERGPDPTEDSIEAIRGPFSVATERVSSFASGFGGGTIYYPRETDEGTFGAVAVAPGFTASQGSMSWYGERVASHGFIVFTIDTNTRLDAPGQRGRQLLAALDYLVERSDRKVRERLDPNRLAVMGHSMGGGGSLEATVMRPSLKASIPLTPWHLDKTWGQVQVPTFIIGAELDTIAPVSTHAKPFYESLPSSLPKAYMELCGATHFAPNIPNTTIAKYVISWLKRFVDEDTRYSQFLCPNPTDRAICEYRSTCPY [Cut190*SS] has PET hydrolysis product formed that meets 0.04 or exceeds it?
**A:** false

**Q:** PET hydrolysis product formed >= 0.04 for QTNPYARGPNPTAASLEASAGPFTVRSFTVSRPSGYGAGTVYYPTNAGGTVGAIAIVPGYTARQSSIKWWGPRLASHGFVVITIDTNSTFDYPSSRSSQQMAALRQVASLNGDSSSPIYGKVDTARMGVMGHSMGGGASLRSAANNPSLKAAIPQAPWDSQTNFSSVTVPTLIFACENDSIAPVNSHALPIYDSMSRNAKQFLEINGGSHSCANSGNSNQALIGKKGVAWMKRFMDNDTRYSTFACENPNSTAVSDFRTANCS [DuraPETase] ?
**A:** true

====

Listed sequences paired with reported BHET released
Experiment: BHET released, HPLC; higher = more BHET released; extreme values may be limits of the assay
Details: PET substrate: aFilm; 70 °C; pH 5.5; 24 h

Previously resolved entries follow.
| item.sequence | quantity.measured | result |
| --- | --- | --- |
| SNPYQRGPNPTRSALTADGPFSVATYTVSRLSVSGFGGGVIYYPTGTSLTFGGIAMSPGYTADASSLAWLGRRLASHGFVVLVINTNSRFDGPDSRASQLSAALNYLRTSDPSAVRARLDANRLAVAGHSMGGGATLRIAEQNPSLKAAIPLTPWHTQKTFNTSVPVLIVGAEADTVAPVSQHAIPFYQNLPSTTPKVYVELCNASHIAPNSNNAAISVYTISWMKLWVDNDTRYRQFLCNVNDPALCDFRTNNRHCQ [LCC-ICCG DAQI] | BHET released | 0.0149 mM |
| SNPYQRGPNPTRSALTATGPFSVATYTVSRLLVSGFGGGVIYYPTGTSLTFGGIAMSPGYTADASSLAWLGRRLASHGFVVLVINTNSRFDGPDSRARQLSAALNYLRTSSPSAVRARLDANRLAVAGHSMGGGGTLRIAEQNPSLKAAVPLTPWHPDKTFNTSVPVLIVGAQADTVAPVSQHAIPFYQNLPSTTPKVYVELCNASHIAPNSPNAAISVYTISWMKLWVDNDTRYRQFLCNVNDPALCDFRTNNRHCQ [LCC-ICCG I6M] | BHET released | 0.00615 mM |
| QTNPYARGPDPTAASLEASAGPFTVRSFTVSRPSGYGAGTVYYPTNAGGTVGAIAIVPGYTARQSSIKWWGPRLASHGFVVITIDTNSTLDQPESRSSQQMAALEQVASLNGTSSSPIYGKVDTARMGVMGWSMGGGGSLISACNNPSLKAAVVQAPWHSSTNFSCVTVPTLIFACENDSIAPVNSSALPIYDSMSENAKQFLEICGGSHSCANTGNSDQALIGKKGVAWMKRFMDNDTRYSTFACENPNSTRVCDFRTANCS [Z1-PETase] | BHET released | 0 mM |
| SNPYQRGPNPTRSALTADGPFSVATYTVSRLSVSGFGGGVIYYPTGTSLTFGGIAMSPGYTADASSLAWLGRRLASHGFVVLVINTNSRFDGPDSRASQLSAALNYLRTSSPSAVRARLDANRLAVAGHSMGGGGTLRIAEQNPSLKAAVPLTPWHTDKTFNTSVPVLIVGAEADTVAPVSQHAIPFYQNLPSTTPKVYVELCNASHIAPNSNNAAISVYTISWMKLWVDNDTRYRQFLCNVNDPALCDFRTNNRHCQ [LCC-ICCG] | BHET released | 0.00749 mM |
| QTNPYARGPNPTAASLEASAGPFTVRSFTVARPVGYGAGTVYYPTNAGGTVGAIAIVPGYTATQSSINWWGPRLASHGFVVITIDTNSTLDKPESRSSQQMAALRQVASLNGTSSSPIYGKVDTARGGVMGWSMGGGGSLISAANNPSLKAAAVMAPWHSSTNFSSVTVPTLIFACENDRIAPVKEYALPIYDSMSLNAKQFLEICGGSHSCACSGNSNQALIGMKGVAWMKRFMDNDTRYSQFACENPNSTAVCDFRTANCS [HotPETase] | BHET released | 0 mM |
| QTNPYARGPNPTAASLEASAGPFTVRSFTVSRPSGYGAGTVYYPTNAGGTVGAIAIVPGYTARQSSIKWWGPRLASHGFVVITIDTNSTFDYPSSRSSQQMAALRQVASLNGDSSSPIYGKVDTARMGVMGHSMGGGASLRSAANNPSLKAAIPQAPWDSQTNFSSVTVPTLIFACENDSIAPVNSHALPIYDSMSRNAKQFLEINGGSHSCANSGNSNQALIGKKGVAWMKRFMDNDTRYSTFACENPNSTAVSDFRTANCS [DuraPETase] | BHET released | 0 mM |

Then this sequence:
Summary for this sequence, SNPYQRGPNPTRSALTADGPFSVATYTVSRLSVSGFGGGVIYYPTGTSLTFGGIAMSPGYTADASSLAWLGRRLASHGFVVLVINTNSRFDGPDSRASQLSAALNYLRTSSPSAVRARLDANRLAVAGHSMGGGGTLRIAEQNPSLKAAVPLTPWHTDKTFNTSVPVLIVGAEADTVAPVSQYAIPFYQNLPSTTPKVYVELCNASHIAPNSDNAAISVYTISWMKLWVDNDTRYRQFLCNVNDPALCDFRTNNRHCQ [LCC-A2] : BHET released is 0.00399 mM
